Data provenance: patent US6355799B1

In this section we review reported Post-emerge Herbicidal Activity, phytotoxicity rating IPOHE values for a set of molecules.
System: ivyleaf morningglory (Ipomoea hederacea, IPOHE)
Assay Notes: Post-emerge test, greenhouse herbicide activity screening
Assay type: in vivo
Conditions Used: Rate 63 g ai/ha; rating scale 0-100 (0 no damage, 100 complete death); 14 days after application
Quick one: just the number, no unit, thanks!

CCOC(=O)C(Cl)Cc1c(OC)c(Cl)cc(F)c1-n1c(=O)cc(C(F)(F)F)n(C)c1=O (single isomer, unassigned) [Compound 14-4] : 50
CCCOC(=O)C(Cl)Cc1c(OC)c(Cl)cc(F)c1-n1c(=O)cc(C(F)(F)F)n(C)c1=O (single isomer, unassigned) [14-7] : 20
COc1c(Cl)cc(F)c(-n2c(=O)cc(C(F)(F)F)n(C)c2=O)c1CC(Cl)C(=O)OCC(F)(F)C(F)(F)C(F)(F)F (single isomer, unassigned) [14-24] : 20
COc1c(Cl)cc(F)c(-n2c(=O)cc(C(F)(F)F)n(C)c2=O)c1CC(Cl)C(=O)OCC(F)(F)C(F)F (stereo not drawn) [14-22] : 10
COc1c(Cl)cc(F)c(-n2c(=O)cc(C(F)(F)F)n(C)c2=O)c1CC(C)(Cl)C(=O)OCCSC (stereo not drawn) [14-48] : 0

# Post-emerge Herbicidal Activity, phytotoxicity rating IPOHE (molecule: COc1c(Cl)cc(F)c(-n2c(=O)cc(C(F)(F)F)n(C)c2=O)c1CC(Cl)C(=O)OCC(Br)CBr (single isomer, unassigned) [14-31] ) is 10
